System: KM12 colon
Experiment: NCI tumour cell line growth inhibition, 48 h
Quantity kind: TGI

Recorded results for 5 molecules are shown here.
# Molecule, TGI
records = [
    ("COc1ccc(N(Cc2cc(OC)c(OC)c(OC)c2)C2OC(=O)c3ccccc32)cc1 (stereo not given)", "> 36.7 µM"),
    ("C=C(C)[C@@H]1CCC[C@]2(C(=O)O)CC[C@]3(C)[C@@H](CC[C@@H]4[C@@]5(C)C/C(=C/c6ccncc6)C(=O)C(C)(C)[C@@H]5CC[C@]43C)[C@@H]12", "3.87 µM"),
    ("O=C(O)CNC(=O)c1cccc2c(=O)c3ccccc3[nH]c12", "> 86.4 µM"),
    ("Cn1c(=O)c2[nH]c(N/N=C3/SCC(=O)N3Cc3ccccc3)nc2n(C)c1=O", "> 100 µM"),
    ("C=CC(C)(C)n1cc(C2=C(O)C(=O)C(c3cn(C(C)(C)C=C)c4ccccc34)=C(OC(C)=O)C2=O)c2ccccc21", "1.97 µM"),
]

Q: Would you mind telling me what TGI value was observed for CCOP(=O)(OCC)C(F)(F)CC1CCCCC1 ?
Result: > 10 µM

Q: // next record C#Cc1cccc(Nc2ncnc3ccc(-c4cncc(NS(C)(=O)=O)c4)cc23)c1
Result: 6.52 µM

Q: // next record COc1ncnc2c(-c3ccco3)cn(COCc3ccccc3)c12
Result: > 50 µM

Q: // next record COc1ccc(S(=O)(=O)NCCNc2nccc(-c3c(-c4ccccc4)nc4sccn34)n2)cc1
Result: > 100 µM

Q: // next record Nc1ccc2c(c1)CN1C(=O)c3ccccc3C1=N2
Result: > 125 µM

---

// GI50 lookup, one value per entry
System: DU-145 prostate
Assay: NCI tumour cell line growth inhibition, 48 h

Recorded results for 2 compounds are shown here.
# Compound, GI50
rows = [
    ("CCN(CC)CCOc1ccc(C2=C(c3ccccc3)CCc3cc(OC)ccc32)cc1", "6.69 µM"),
    ("Cc1csc(Nc2nc(-c3cccc(Cl)c3)nc(C(Cl)(Cl)Cl)n2)n1", "0.713 µM"),
]

Q: Would you mind telling me what GI50 value was observed for COc1ccc(S(=O)(=O)NCCNc2nccc(-c3c(-c4ccccc4)nc4sccn34)n2)cc1 ?
Result: 3.37 µM

Q: // next record CCCCCCN1C(=O)CN=C1Nc1ccc2cc3ccc(NC4=NCC(=O)N4CCCCCC)cc3nc2c1
Result: 1.94 µM

Q: // next record O=c1[nH]c(-c2ccccn2)nc2sc3c(c12)CCCCCC3
Result: 6.73 µM

Q: // next record OCCCCC#Cc1ccccc1C#Cc1cnccn1
Result: 13.8 µM

Q: // next record CCC1(N2C(=O)c3c(F)c(F)c(F)c(F)c3C2=O)C(=O)NC(=O)N(c2ccccc2)C1=O (stereo not given)
Result: 4.87 µM

Q: // next record CC1(C)CC2(C)OC2C2(C1)N=NC(=Nc1ccccc1)O2 (stereo not given)
Result: 4.78 µM

Q: // next record CC(C)(C)c1cc(C(=O)Nc2cc3ccccc3cc2C(=O)NCCN)cc(C(C)(C)C)c1
Result: 0.374 µM

Q: // next record Cc1ccc(OCCCCCCNCCO)c(C)c1
Result: 16.7 µM

---

// TGI lookup, one value per entry
System: RXF 393 renal
Experiment: NCI tumour cell line growth inhibition, 48 h
Answer in µM, number only, no unit symbol.

Recorded results for 4 molecules are shown here.
# Molecule, Quantity kind, Reported value
measured = [
    ("OCCCCC#Cc1ccccc1C#Cc1cnccn1", "TGI", 54.2),
    ("C=C1C(=O)C[C@@]23CCC[C@@]12CC(O)C3 (some centres undefined)", "TGI", 33.8),
    ("COc1cc(C(=O)/C=C/c2c(C(F)(F)F)nc3sccn23)cc(OC)c1OC", "TGI", 4.24),
    ("C=C(C)[C@]12CC(C)C34OC(/C=C\\C=C\\CCCCCCCCC)(O[C@@H]1[C@@H]3[C@@H]1O[C@]1(CO)[C@@H](O)[C@]1(O)C(=O)C(C)=C[C@@H]41)O2 (some centres undefined)", "TGI", 28.6),
]

Consider the additional molecule presented here.
Q: Would you mind telling me what TGI value was observed for C/C(=N/Nc1ccc([N+](=O)[O-])cc1[N+](=O)[O-])C(CC(C(=O)Nc1ccccc1C)/C(C)=N\Nc1ccc([N+](=O)[O-])cc1[N+](=O)[O-])C(=O)Nc1ccccc1C (centres undefined) ?
Result: 24.3
